# ASSAY SYSTEM: UniProtKB Q9NYK1
# ASSAY NAME: TLR7 inhibition reporter assay (HEK-Blue SEAP)
# EXPERIMENTAL PARAMETERS: HEK-Blue cells overexpressing human TLR7, stimulated with gardiquimod 7.5 μM, 22 hour incubation
# From the text: TLR7/8/9 Inhibition Reporter Assays HEK-Blue™-cells (Invivogen) overexpressing human TLR7, TLR8 or TLR9 receptors were used for screening inhibitors of these receptors using an inducible SEAP (secreted embryonic alkaline phosphatase) reporter gene under the control of the IFN-β minimal promoter fused to five NF-κB and AP-1-binding sites. […]
MEASURED METRIC: IC50 (nM)

[[record]]
compound = "Cc1cc(-c2[nH]c3ccc(OCC4CCNCC4)cc3c2C(C)C)ccn1"
display_unit = "nM"
measured = 12.9

[[record]]
compound = "COCCN1CCC(COc2ccc3[nH]c(-c4ccnc(C)c4)c(C(C)C)c3c2)C1 (stereo not shown)"
display_unit = "nM"
measured = 113


1. COc1ccc(-c2[nH]c3ccc(OCC(=O)NC[C@H]4CCNC4)cc3c2C(C)C)cc1OC
2. Cc1cc(-c2[nH]c3ccc(O[C@H]4CCCN(C(=O)CN(C)C)C4)cc3c2C(C)C)cn2ncnc12
Exam item: Which of these two has the smaller recorded IC50: 1 or 2 ? Please respond with the label that marks your chosen entry.
Marked response: 2
(2: 3.1 nM, 1: 109 nM)

###

# ASSAY SYSTEM: human TLR7 (Homo sapiens)
# Sequence (Q9NYK1 27-1049): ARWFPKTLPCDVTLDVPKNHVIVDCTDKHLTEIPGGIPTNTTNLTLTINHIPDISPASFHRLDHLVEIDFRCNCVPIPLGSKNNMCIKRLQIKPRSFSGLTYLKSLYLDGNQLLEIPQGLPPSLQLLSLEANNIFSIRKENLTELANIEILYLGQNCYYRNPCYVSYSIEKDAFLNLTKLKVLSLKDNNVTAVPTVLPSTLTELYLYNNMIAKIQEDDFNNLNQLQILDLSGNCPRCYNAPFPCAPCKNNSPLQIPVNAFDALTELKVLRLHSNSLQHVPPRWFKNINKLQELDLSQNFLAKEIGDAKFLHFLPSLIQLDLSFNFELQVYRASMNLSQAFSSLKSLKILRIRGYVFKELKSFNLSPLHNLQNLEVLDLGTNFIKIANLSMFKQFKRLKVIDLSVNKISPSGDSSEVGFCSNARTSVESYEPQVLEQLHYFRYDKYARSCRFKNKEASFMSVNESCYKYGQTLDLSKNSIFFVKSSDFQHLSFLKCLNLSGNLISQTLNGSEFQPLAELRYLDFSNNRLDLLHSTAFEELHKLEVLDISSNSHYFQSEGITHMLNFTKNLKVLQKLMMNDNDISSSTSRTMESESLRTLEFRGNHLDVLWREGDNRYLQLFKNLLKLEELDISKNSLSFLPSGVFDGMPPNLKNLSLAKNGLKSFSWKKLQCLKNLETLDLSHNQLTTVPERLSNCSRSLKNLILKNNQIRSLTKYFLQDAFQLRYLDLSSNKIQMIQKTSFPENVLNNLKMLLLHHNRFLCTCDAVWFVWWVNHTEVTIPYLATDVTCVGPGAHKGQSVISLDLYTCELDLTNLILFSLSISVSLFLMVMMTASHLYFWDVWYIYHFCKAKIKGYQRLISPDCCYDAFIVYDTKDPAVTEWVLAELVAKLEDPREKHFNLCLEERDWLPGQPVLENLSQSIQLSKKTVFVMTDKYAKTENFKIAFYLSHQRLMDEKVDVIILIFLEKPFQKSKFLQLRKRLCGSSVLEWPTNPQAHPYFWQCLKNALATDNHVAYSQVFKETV
# ASSAY NAME: TLR7 inhibition reporter assay (HEK-Blue SEAP)
# EXPERIMENTAL PARAMETERS: HEK-Blue cells overexpressing human TLR7, stimulated with gardiquimod 7.5 μM, 22 hour incubation
MEASURED METRIC: IC50 (nM)

Example compounds with recorded IC50:
[[record]]
compound = "Cc1cc(-c2[nH]c3ccc(OCC4CN(C5COC5)C4)cc3c2C(C)C)cn2ncnc12 [Example 60]"
assay_system = "human TLR7 (Homo sapiens)"
measured_metric = "IC50"
display_unit = "nM"
measured = 1.2

[[record]]
compound = "COc1ccc(-c2[nH]c3ccc(OCC(=O)NC4CN5CCC4CC5)cc3c2C(C)C)cc1OC (stereo not shown) [Example 125]"
assay_system = "human TLR7 (Homo sapiens)"
measured_metric = "IC50"
display_unit = "nM"
measured = 19


a. Cc1cc(-c2[nH]c3ccc(OCC4CN(CCS(C)(=O)=O)C4)cc3c2C(C)C)cn2ncnc12 [Example 92]
b. CNCC(=O)N1CCC(Oc2ccc3[nH]c(-c4cc(C)nc(C)c4)c(C(C)C)c3c2)CC1 [Example 109]
Exam item: Pick one: a or b . Which has the bigger IC50 number? Which one? Tell me its label.
Marked response: b

###

# ASSAY SYSTEM: human TLR7 (Homo sapiens)
# ASSAY NAME: TLR7 inhibition reporter assay (HEK-Blue SEAP)
# EXPERIMENTAL PARAMETERS: HEK-Blue cells overexpressing human TLR7, stimulated with gardiquimod 7.5 μM, 22 hour incubation
MEASURED METRIC: IC50 (nM)

# count of solved cases: 8
[[record]]
compound = "COc1ccc(-c2[nH]c3ccc(OCC4CCN(Cc5ccccc5)CC4)cc3c2C(C)C)cc1OC"
assay_system = "human TLR7 (Homo sapiens)"
measured_metric = "IC50"
measured = 275

[[record]]
compound = "CCc1c(-c2ccnc(C)c2)[nH]c2ccc(OC3CCN(C)CC3)cc12"
assay_system = "human TLR7 (Homo sapiens)"
measured_metric = "IC50"
measured = 166

[[record]]
compound = "Cc1cc(-c2[nH]c3ccc(OC4CCNCC4)cc3c2C(C)C)cc(C)n1"
assay_system = "human TLR7 (Homo sapiens)"
measured_metric = "IC50"
measured = 2.9

[[record]]
compound = "Cc1cc(-c2[nH]c3ccc(OCC4CCN(CC(C)(C)O)CC4)cc3c2C(C)C)cn(C)c1=O"
assay_system = "human TLR7 (Homo sapiens)"
measured_metric = "IC50"
measured = 115

[[record]]
compound = "COc1cc(-c2[nH]c3ccc(OC4CCN(C)CC4)cc3c2C(C)C)cn2ncnc12"
assay_system = "human TLR7 (Homo sapiens)"
measured_metric = "IC50"
measured = 0.3

[[record]]
compound = "Cc1cc(-c2[nH]c3ccc(OCCN4CCCC4)cc3c2C(C)C)cn2ncnc12"
assay_system = "human TLR7 (Homo sapiens)"
measured_metric = "IC50"
measured = 1

[[record]]
compound = "Cc1c(-c2[nH]c3ccc(OCC4CCN(C(=O)CN(C)C)CC4)cc3c2C(C)C)cn2cnnc2c1C"
assay_system = "human TLR7 (Homo sapiens)"
measured_metric = "IC50"
measured = 4.6

[[record]]
compound = "Cc1cc(-c2[nH]c3ccc(OC4CCNCC4)cc3c2C(C)C)ccn1"
assay_system = "human TLR7 (Homo sapiens)"
measured_metric = "IC50"
measured = 11.2


P. Cc1cc(-c2[nH]c3ccc(OCC4CCCN(C)C4)cc3c2C(C)C)ccn1 (centres unmarked)
Q. Cc1cc(-c2[nH]c3ccc(OCC4CCN(C)CC4)cc3c2C(C)C)cc(C)n1
R. COc1ccc(-c2[nH]c3ccc(OCC(=O)N[C@@H]4CCNC4)cc3c2C(C)C)cc1OC
Exam item: Order the records, beginning with the lowest IC50 and ending with the highest. To answer, arrange all of the labels according to the requested order.
Marked response: Q, P, R

1. Cc1cc(-c2[nH]c3ccc(OCC4CCN(C(C)C)CC4)cc3c2C(C)C)cc(C)n1
2. Cc1cc(-c2[nH]c3ccc(OC4CCN(C5CCOCC5)CC4)cc3c2C(C)C)cn(C)c1=O
3. Cc1cc(-c2[nH]c3ccc(O[C@H]4CCCN(CC(=O)N(C)C)C4)cc3c2C(C)C)cn(C)c1=O
4. CNC(=O)CN1CCC(Oc2ccc3[nH]c(-c4cc(C)c(=O)n(C)c4)c(C(C)C)c3c2)CC1
5. Cc1cc(-c2[nH]c3ccc(OCC4CN(CC(C)(C)O)C4)cc3c2C(C)C)cn2ncnc12
Exam item: # rank by IC50, ascending (min first) Form field (ranking): labels in requested order.
Marked response: 5, 2, 1, 4, 3
(5: 1.1 nM, 2: 2.5 nM, 1: 4.9 nM, 4: 10.2 nM, 3: 17.3 nM)

A. Cc1cc(-c2[nH]c3ccc(O[C@H]4CCCN(CC(=O)N(C)C)C4)cc3c2C(C)C)cn2ncnc12
B. Cc1cc(-c2[nH]c3ccc(O[C@H]4CCCN(C5CCOCC5)C4)cc3c2C(C)C)cn(C)c1=O
Exam item: Short answer wanted: higher IC50, A or B ? Lab note: record the label of whichever item you select.
Marked response: B
(B: 15.9 nM, A: 1.8 nM)

P. Cc1cc(-c2[nH]c3ccc(OCC4CCNCC4)cc3c2C(C)C)cn(C)c1=O
Q. Cc1cc(-c2[nH]c3ccc(OCC4CCN(CC(C)(C)O)CC4)cc3c2C(C)C)cn2ncnc12
R. COCCN1CCC(COc2ccc3[nH]c(-c4cc(C)nc(C)c4)c(C(C)C)c3c2)CC1
S. COc1ccc(-c2[nH]c3ccc(OCC(=O)N(C)C4CCCNC4)cc3c2C(C)C)cc1OC (centres unmarked)
T. CCCN1CCC(COc2ccc3[nH]c(-c4cn5cnnc5c(C)c4C)c(C(C)C)c3c2)CC1
Exam item: Sort (5 compounds) by IC50: min first. Hello, could you send the labels back in the order asked? Thank you.
Marked response: Q, T, P, R, S
